assay.comment: chemical genetic growth profiling, strain panel (AID 1159580);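 also: tested at 20 µM; growth read once vehicle control cultures reached saturation at 30 °C; lower values mean less growth of the strain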
condition.set: S. cerevisiae deletion strains, growth OD, locus YLR330W, strain CHS5
Out of some 5,500 compounds screened, about 2,000 (36%) were called active. Another 18% or so got no clear call; they are omitted. Rule as the data show it: active = normalized growth mostly below about 0.91 (no sharp cut-off); inconclusive = no clear call, values can overlap the other calls; inactive = mostly above about 0.92. This is one part of the list.
// classify into active, inactive

Incoming: So what was the verdict on CN(C)c1ccc(C(=C2C=CC(=[N+](C)C)C=C2)c2ccc(N(C)C)cc2)cc1 in this test?
Outgoing: active

Incoming: So what was the verdict on c1cncc(C2CCCCN2)c1 (centres undefined) in this test?
Outgoing: inactive

Incoming: So what was the verdict on O=C1C=CC(=C(c2ccc(O)cc2)c2ccc(O)cc2)C=C1 in this test?
Outgoing: inactive

Incoming: So what was the verdict on C[C@@H]1[C@H]2[C@H](O[C@@H]3O[C@H](CO)[C@@H](O)[C@H](O)[C@H]3O)OC=C(C(=O)O)[C@H]2C[C@@H]1O in this test?
Outgoing: inactive

Incoming: So what was the verdict on COC1=C(OC)C(=O)C(C/C=C(\C)CC/C=C(\C)CC/C=C(\C)CC/C=C(/C)CC/C=C(\C)CC/C=C(\C)CC/C=C(\C)CC/C=C(\C)CC/C=C(\C)CCC=C(C)C)=C(C)C1=O in this test?
Outgoing: inactive

Incoming: So what was the verdict on CC(C[N+](C)(C)C)OC(N)=O (centres undefined) in this test?
Outgoing: inactive

Incoming: So what was the verdict on C=C1C2CC[C@H]3[C@]4(C)C[C@H](OC5OC(CO)C(OS(=O)(=O)O)C(OS(=O)(=O)O)C5OC(=O)CC(C)C)C[C@@H](C(=O)O)[C@H]4CC[C@]3(C2)[C@H]1O (some centres undefined) in this test?
Outgoing: inactive

Incoming: So what was the verdict on CCC(C)C(OC(C)=O)C(=O)OC1C(O)C2C3(C)C=CC(=O)C(C)(C)C3CC(OC(=O)C(O)C(C)C)C2(C)C23OC2CC(c2ccoc2)C13C (centres undefined) in this test?
Outgoing: inactive

Incoming: So what was the verdict on CC(=O)OCC(=O)[C@@]1(O)CCC2C3CCC4=CC(=O)CC[C@]4(C)C3C(=O)C[C@@]21C (some centres undefined) in this test?
Outgoing: inactive

Incoming: So what was the verdict on CC1(C)OC(=O)NC1=O in this test?
Outgoing: inactive

Incoming: So what was the verdict on NC(=O)c1ccc[n+]([C@@H]2O[C@H](COP(=O)([O-])OP(=O)(O)OC[C@H]3O[C@@H](n4cnc5c(N)ncnc54)[C@H](O)[C@@H]3O)[C@@H](O)[C@H]2O)c1 in this test?
Outgoing: inactive

Incoming: So what was the verdict on CN1CCC(=C2c3ccccc3Sc3ccccc32)CC1 in this test?
Outgoing: inactive

Incoming: So what was the verdict on COC1=CC(=O)C[C@@H](C)[C@]12Oc1c(Cl)c(OC)cc(OC)c1C2=O in this test?
Outgoing: inactive

Incoming: So what was the verdict on C[N+](C)(C)CCOC(N)=O in this test?
Outgoing: inactive

Incoming: So what was the verdict on CC(=O)OCC(=O)[C@H]1CCC2C3CCC4=CC(=O)CC[C@]4(C)C3CC[C@@]21C (some centres undefined) in this test?
Outgoing: active

Incoming: So what was the verdict on O=C(O)c1cc2ccccc2c(Cc2c(O)c(C(=O)O)cc3ccccc23)c1O in this test?
Outgoing: inactive

Incoming: So what was the verdict on O=C(O)c1cc2ccccc2[nH]1 in this test?
Outgoing: inactive

Incoming: So what was the verdict on O=C(O)c1c2ccccc2cc2ccccc12 in this test?
Outgoing: inactive

Incoming: So what was the verdict on c1ccc(N=Nc2ccccc2)cc1 in this test?
Outgoing: inactive
